Conditions: human, serum, oral, Mean clearance, all patients
EXPERIMENTAL_READOUT: clearance (mL/min)
Answers are plain numbers, in mL/min.

Determine from records and report clearance for CC1(COc2ccc3c(c2)ncn3-c2ccc3cccc(N4CCC(N)CC4)c3n2)COC1 [crenolanib] 642

---

Conditions: human, serum, oral, Mean clearance, with acid reducers
EXPERIMENTAL_READOUT: clearance (mL/min)
Numbers only, in mL/min.

Determine from records and report clearance for CC1(COc2ccc3c(c2)ncn3-c2ccc3cccc(N4CCC(N)CC4)c3n2)COC1 435

---

Conditions: human, serum, oral, 170 mg/m2, Steady state AUC0–24h, range, after 170 mg/m^2
EXPERIMENTAL_READOUT: AUC(0-t)

Determine from records and report AUC(0-t) for CC1(COc2ccc3c(c2)ncn3-c2ccc3cccc(N4CCC(N)CC4)c3n2)COC1 9.48 to 68.5 µM·h
